Tested on: Hepatotoxicity
assay_method_text: FDA HLAED, lactate dehydrogenase (LDH) increase
conditions: human
metric_name: LDH Increase - Number of Reports

>>> val("CC(=O)O[C@H]1C(=O)[C@@]2(C)[C@H]([C@H](OC(=O)c3ccccc3)[C@]3(O)C[C@H](OC(=O)[C@H](O)[C@@H](NC(=O)c4ccccc4)c4ccccc4)C(C)=C1C3(C)C)[C@]1(OC(C)=O)CO[C@@H]1C[C@@H]2O")
">= 4"
>>> val("CCOC(=O)[C@H](CCc1ccccc1)N[C@@H](C)C(=O)N1Cc2ccccc2C[C@H]1C(=O)O")
"< 4"
>>> val("CC(Cc1ccc(O)c(O)c1)C(C)Cc1ccc(O)c(O)c1 (stereo not drawn) [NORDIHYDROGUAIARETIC ACID]")
"< 4"

* * *

System: Hepatotoxicity
assay_method_text: FDA HLAED, alkaline phosphatase increase
conditions: human
Rule: Alkaline Phosphatase Increase - Index Value of 0.3 or more gives criterion met; anything lower gives criterion not met.

// inclusive: Alkaline Phosphatase Increase - Index Value at least 0.3? input: C[C@]12CC[C@H]3[C@@H](CCC4=CC(=O)CC[C@@]43C)[C@@H]1CC[C@@H]2O [TESTOSTERONE]
criterion not met

// inclusive: Alkaline Phosphatase Increase - Index Value at least 0.3? input: CCOC(=O)C1=C(C)NC(C)=C(C(=O)OC)C1c1cccc(Cl)c1Cl (stereo not drawn) [FELODIPINE]
criterion met

// inclusive: Alkaline Phosphatase Increase - Index Value at least 0.3? input: CC(C)c1ccc2oc3nc(N)c(C(=O)O)cc3c(=O)c2c1 [AMLEXANOX]
criterion not met

// inclusive: Alkaline Phosphatase Increase - Index Value at least 0.3? input: CCOC(=O)OC(C)OC(=O)[C@@H]1N2C(=O)[C@@H](NC(=O)[C@H](N)c3ccccc3)[C@H]2SC1(C)C (stereo partly drawn) [BACAMPICILLIN]
criterion not met

// inclusive: Alkaline Phosphatase Increase - Index Value at least 0.3? input: CC(C)c1cccc(C(C)C)c1O [PROPOFOL]
criterion met

// inclusive: Alkaline Phosphatase Increase - Index Value at least 0.3? input: CO/N=C(\C(=O)N[C@@H]1C(=O)N2C(C(=O)O)=C(CSc3nc(=O)c(=O)[nH]n3C)CS[C@H]12)c1csc(N)n1 [CEFTRIAXONE]
criterion met

// inclusive: Alkaline Phosphatase Increase - Index Value at least 0.3? input: CCC(=O)Oc1ccc2c(c1)CC[C@@H]1[C@@H]2CC[C@]2(C)[C@@H](OC(=O)CC)CC[C@@H]12 [ESTRADIOL DIPROPIONATE]
criterion met

* * *

Provide the reported Composite Activity - Active of each item.
System: Hepatotoxicity
assay_method_text: FDA HLAED, liver enzyme composite activity
conditions: human
Please reply with the value in numeric form only.

The reported Composite Activity - Active of the compound COC(=O)CCc1ccc(OCC(O)CNC(C)C)cc1 (configuration not stated) was 0

The reported Composite Activity - Active of the compound CC(C)N(CCC(C(N)=O)(c1ccccc1)c1ccccn1)C(C)C (configuration not stated) [DISOPYRAMIDE] was 0

The reported Composite Activity - Active of the compound CCCCC(=O)O[C@]1(C(=O)CO)[C@H](C)C[C@H]2[C@@H]3CCC4=CC(=O)C=C[C@]4(C)[C@@]3(F)[C@@H](O)C[C@@]21C [DEXAMETHASONE VALARATE] was 0

The reported Composite Activity - Active of the compound CC(C)(C)NCC(O)COc1cccc2c1CC(O)C(O)C2 (configuration not stated) was 0

The reported Composite Activity - Active of the compound `CC(=O)N[C@@H](CS)C(=O)O` was 1

The reported Composite Activity - Active of the compound `C[C@H]1[C@H](NC(=O)/C(=N\OC(C)(C)C(=O)O)c2csc(N)n2)C(=O)N1S(=O)(=O)O` was 1

The reported Composite Activity - Active of the compound OCc1cc(C(O)CNCCCCCCOCCCCc2ccccc2)ccc1O (configuration not stated) was 0

The reported Composite Activity - Active of the compound CC(=O)OCC(=O)[C@@]1(O)[C@H](C)C[C@H]2[C@@H]3CCC4=CC(=O)C=C[C@]4(C)[C@@]3(F)[C@@H](O)C[C@@]21C [DEXAMETHASONE ACETATE] was 0

The reported Composite Activity - Active of the compound O=c1[nH]c2ccccc2n1C1CCN(CCCC(c2ccc(F)cc2)c2ccc(F)cc2)CC1 [PIMOZIDE] was 0

The reported Composite Activity - Active of the compound `Cc1ccc(C)c(OCCCC(C)(C)C(=O)O)c1` was 0

The reported Composite Activity - Active of the compound Cn1nnnc1SCC1=C(C(=O)[O-])N2C(=O)[C@@H](NC(=O)[C@H](OC=O)c3ccccc3)[C@H]2SC1.[Na+] [CEFAMANDOLE NAFATE] was 0

The reported Composite Activity - Active of the compound `NC(=O)c1ncn([C@@H]2O[C@H](CO)[C@@H](O)[C@H]2O)n1` was 0

The reported Composite Activity - Active of the compound `CC1=C(/C=C/C(C)=C/C=C/C(C)=C\C(=O)O)C(C)(C)CCC1` was 4

The reported Composite Activity - Active of the compound `CC(=O)O[C@@]12CO[C@@H]1C[C@H](O)[C@@]1(C)C(=O)[C@H](O)C3=C(C)[C@@H](OC(=O)[C@H](O)[C@@H](NC(=O)OC(C)(C)C)c4ccccc4)C[C@@](O)([C@@H](OC(=O)c4ccccc4)[C@H]21)C3(C)C.O.O.O` was 0

The reported Composite Activity - Active of the compound `CC(C)(C#N)c1cc(Cn2cncn2)cc(C(C)(C)C#N)c1` was 2

The reported Composite Activity - Active of the compound `CN1C(C(=O)Nc2ccccn2)=C(O)c2ccccc2S1(=O)=O` was 0

The reported Composite Activity - Active of the compound CC(C)(C)NCC(O)COc1cccc2c1CCC(=O)N2 (configuration not stated) was 0

The reported Composite Activity - Active of the compound `COC1=CC(=O)C[C@@H](C)[C@]12Oc1c(Cl)c(OC)cc(OC)c1C2=O` was 4

The reported Composite Activity - Active of the compound O=C(NCC(O)CO)c1c(I)c(C(=O)NCC(O)CO)c(I)c(N(CCO)C(=O)CO)c1I (configuration not stated) was 0

The reported Composite Activity - Active of the compound O=C(O)C1N=C(c2ccccc2)c2cc(Cl)ccc2NC1=O (configuration not stated) [CLORAZEPIC ACID] was 0

The reported Composite Activity - Active of the compound Cc1nccn1CC1CCc2c(c3ccccc3n2C)C1=O (configuration not stated) was 0

The reported Composite Activity - Active of the compound CN1CC[C@]23c4c5ccc(O)c4O[C@H]2C(=O)CC[C@H]3[C@H]1C5 [HYDROMORPHONE] was 0

The reported Composite Activity - Active of the compound `Nc1ccn([C@@H]2CS[C@H](CO)O2)c(=O)n1` was 2

The reported Composite Activity - Active of the compound `C=C1c2c(Cl)ccc(O)c2C(=O)C2=C(O)[C@]3(O)C(=O)C(C(N)=O)=C(O)[C@@H](N(C)C)[C@@H]3[C@@H](O)[C@H]12` was 0

The reported Composite Activity - Active of the compound COc1cc([C@@H]2c3cc4c(cc3[C@@H](O[C@@H]3O[C@@H]5CO[C@@H](c6cccs6)O[C@H]5[C@H](O)[C@H]3O)[C@H]3COC(=O)[C@H]23)OCO4)cc(OC)c1O [TENIPOSIDE] was 0

The reported Composite Activity - Active of the compound `Cc1nc2n(c(=O)c1CCN1CCC(c3noc4cc(F)ccc34)CC1)CCCC2` was 2

The reported Composite Activity - Active of the compound `N[C@@H](Cc1ccc(N(CCCl)CCCl)cc1)C(=O)O` was 0

The reported Composite Activity - Active of the compound `CO[C@@]1(NC(=O)CSCC#N)C(=O)N2C(C(=O)O)=C(CSc3nnnn3C)CS[C@@H]21` was 0

The reported Composite Activity - Active of the compound `Cc1ccc(Cl)c(Nc2ccccc2C(=O)O)c1Cl` was 0

The reported Composite Activity - Active of the compound CC(N)C12CC3CC(CC(C3)C1)C2 (configuration not stated) was 0

The reported Composite Activity - Active of the compound `NCCCCCC(=O)O` was 0

The reported Composite Activity - Active of the compound `C[C@H]1C[C@H]2[C@@H]3C[C@H](F)C4=CC(=O)C=C[C@]4(C)[C@@]3(F)[C@@H](O)C[C@]2(C)[C@@]1(O)C(=O)CCl` was 0

* * *

Provide the reported Composite Activity - Marginal of each item.
Test system: Hepatotoxicity
assay_method_text: FDA HLAED, liver enzyme composite activity
conditions: human
Please reply with the value in numeric form only.

The reported Composite Activity - Marginal of the compound `C=C1/C(=C\C=C2/CCC[C@]3(C)[C@@H]([C@H](C)CCCC(C)(C)O)CC[C@@H]23)C[C@@H](O)C[C@@H]1O` was 0

The reported Composite Activity - Marginal of the compound COc1cc(N)c(Cl)cc1C(=O)NC1CCN(CCCOc2ccc(F)cc2)CC1OC (centres undefined) [CISAPRIDE] was 0

The reported Composite Activity - Marginal of the compound `CN(Cc1ccc(C(C)(C)C)cc1)Cc1cccc2ccccc12` was 0

The reported Composite Activity - Marginal of the compound `Cc1cc2c(s1)Nc1ccccc1N=C2N1CCN(C)CC1` was 1

Reference source for all entries: ChEMBL document CHEMBL1697781
